Test system: RXF 393 renal
Assay: NCI tumour cell line growth inhibition, 48 h
Overview of recorded TGI for various compounds
Please state the figure in µM; there is no need to write the unit.

Compound | Assayed target | TGI / µM
CCN(CC)CCN1C(=O)c2c(c3c4ccccc4[nH]c3c3ccc4ccccc4c23)C1=O | RXF 393 renal | 2.83
COc1cccc(CC(C)=C(c2ccc(OCCN3CCCCC3)cc2)c2ccc(OCCN3CCCCC3)cc2)c1 | RXF 393 renal | 2.88
CC(=O)Oc1ccc2c(c1)CC[C@@H]1C2[C@@H](O[N+](=O)[O-])C[C@@]2(C)C1CC[C@@H]2O[N+](=O)[O-] (stereo not given in full) | RXF 393 renal | 23.7
CCOC(=O)Oc1cc2c(c(OC)c1OC)-c1ccc(OC)c(=O)cc1C(NC(C)=O)CC2 (stereo not given) | RXF 393 renal | 0.564

# evaluate next
In: Give recorded TGI. CC(C)=CCc1[nH]c2ccccc2c1C1=C(O)C(=O)C(c2c(CC=C(C)C)[nH]c3ccccc23)=C(O)C1=O
Out: 8.17

###

System: HOP-92 NSCLC
Test: NCI tumour cell line growth inhibition, 48 h
Assay metric: TGI

Compound | Assayed target | Value
CCOC(=O)NC(OC)(C(F)(F)F)C(F)(F)F | HOP-92 NSCLC | > 100 µM
Cc1ccccc1NC(=O)c1sc2nc(C)c(C(=O)/C=C/c3ccccc3)cc2c1N | HOP-92 NSCLC | 7.26 µM

In: Tell me TGI reported for O=C(/C=C(\S/C=C(/c1ccccc1)N1CCn2c(C(=O)c3ccccc3)c(C(=O)c3ccccc3)c(C(=O)c3ccccc3)c21)C(=O)c1ccccc1)c1ccccc1
Out: > 10 µM

In: Return value of TGI for input Cc1csc2[n+]1-c1ccccc1N(C(=O)Nc1ccccc1)C(C)C2 (stereo not given) , no commentary.
Out: > 100 µM

In: State, in one line, measured TGI of CCc1ccc(CCC(=O)Nc2ncc(Cc3ccc(Cl)cc3)s2)o1
Out: > 100 µM

In: Please report the measured TGI for COc1cc(OC)c2c3c(OC)cc(OC)c4c(=O)c(O)c(C[C@@H](C)O)c(c5c(C[C@@H](C)O)c(O)c(=O)c1c25)c43
Out: 35.4 µM

###

Property: TGI; scope: individual compounds
Tested on: U251 CNS
Assay: NCI tumour cell line growth inhibition, 48 h

In: Name the value of TGI reported for Nc1ncn2c(n1)nc1ccccc12 when tested on U251 CNS.
Out: > 100 µM

In: Send back U251 CNS TGI of CC(C)(C)C1CCC2c3c([nH]c4ccccc34)C3C(=O)N(c4ccc(Cl)cc4)C(=O)C3C2C1 (centres undefined) only.
Out: > 100 µM

In: Report the value of TGI obtained on U251 CNS for COC(=O)C1=C(O)[C@H](C(=O)OC)C2(O)C(C(=O)OC)[C@H](c3ccc(OC(=O)C(C)c4ccc(CC(C)C)cc4)cc3)C[C@@H]1[C@@H]2C(=O)OC (some centres undefined) .
Out: 30.2 µM

In: Provide the reported TGI (system: U251 CNS) for CC(=O)[O-].Cn1ccnc1CNCc1nccn1C.[Cu+2].[O-][Cl+3]([O-])([O-])[O-]
Out: > 100 µM

###

System: M19-MEL melanoma
Assay: NCI tumour cell line growth inhibition, 48 h
Assay metric: TGI

Sample smiles | TGI
O=C(O)c1ccc(C2=Cc3cc(Cl)ccc3OC2)cc1 | > 100 µM
CC(=O)c1c2c(cc3c1CC1(C3)Cc3cc4c(c(C(C)=O)c3C1)CCC4)CCC2 | > 100 µM

In: # return TGI of CN(c1ccc(C(=O)c2ccc(N(C)S(C)(=O)=O)cc2)cc1)S(C)(=O)=O (system: M19-MEL melanoma)
Out: > 100 µM

###

Tested on: 786-0 renal
Test: NCI tumour cell line growth inhibition, 48 h
List of TGI values.
Answer in µM, number only, no unit symbol.

In: Give the reported value of TGI for this record: CCC(C)[C@H](NC(=O)Nc1cc(C(F)(F)F)cc(C(F)(F)F)c1)C(=O)N[C@@H](Cc1cn(C)cn1)C(=O)OC (stereo partly drawn)
Out: 1.88

In: Specify TGI for Cc1cc(S(=O)(=O)Nc2nc3ccccc3nc2-c2ccc(Cl)cc2)c(S)cc1Cl and stop.
Out: 43.5

In: Return the recorded TGI value; entry: CC(=O)Oc1c(-c2ccccc2)sc2ccccc12
Out: 28.9

In: Determine its reported TGI: N/C(=N\N=C\c1ccc(C(F)(F)F)cc1)NO
Out: 37.7

In: Please indicate TGI recorded for C=C(NC(=O)C(=C)NC(=O)c1csc(C2=NC3c4csc(n4)C4NC(=O)c5csc(n5)C(C(C)(O)C(C)O)NC(=O)C5CSC(=N5)/C(=C/C)NC(=O)C(C(C)O)NC(=O)c5csc(n5)C3(CC2)NC(=O)C(C)NC(=O)C(=C)NC(=O)C(C)NC(=O)C(C(C)CC)NC2C=Cc3c(C(C)O)cc(nc3C2O)C(=O)OC4C)n1)C(N)=O (stereo not drawn)
Out: 3.26

###

Test system: SR leukemia
Assay: NCI tumour cell line growth inhibition, 48 h
Assay metric: TGI

Examples with their reported TGI follow.
Compound | Value
COc1cc2c(c(O)c1OC)CC1CCC(=O)N1C2c1cccc2ccccc12 (centres undefined) | > 100 µM
COc1ccc2c(c1)nc(C(=O)c1ccco1)c(C(F)(F)F)[n+]2[O-] | > 100 µM

In: Give reported TGI value for Cc1cccc(C)c1NC(=O)C1=NC(=S)NC(c2ccccc2)C1c1nc2ccccc2s1 (centres undefined)
Out: > 100 µM

In: Look up TGI of O=c1[nH]cc(Cl)c(=O)[nH]1 and report it.
Out: > 100 µM

###

Test system: ACHN renal
Assay: NCI tumour cell line growth inhibition, 48 h; in the data active means GI50 below about 0.43 µM; inactive means the rest
# output must be one of active, inactive

Some solved cases for reference:
Compound | Qualitative label
CCN(Cc1ccccc1)C1CCN(Cc2cc(Br)ccc2O)CC1 | inactive
COc1cc(OC)cc(-c2n/c(=C\c3c(O)[nH]c4ccc(OC)cc34)cc3c2=Nc2ccccc2-3)c1 | inactive
COc1cc(/C=C/C(=O)/C=C/c2ccc(-n3ccnc3C)cc2)ccc1O | inactive

In: Record request — test call for Nc1ccc(C2=CC(c3ccc(Cl)cc3)N3C=CSC3=N2)cc1 (stereo unspecified)
Out: inactive

In: Please let me know the test result on file for COc1ccc(/C(COc2ccc3oc(-c4ccccc4)cc(=O)c3c2)=N\O)cc1 .
Out: active

In: Look up the recorded call for CCc1ccc(CCC(=O)Nc2ncc(Cc3ccc(Cl)cc3)s2)o1 in this test.
Out: inactive

###

Measured TGI accompanies every entry in the list below.
System: SNB-75 CNS
Assay: NCI tumour cell line growth inhibition, 48 h

Consider the worked cases shown below.
Compound | Assayed target | TGI
COc1cc(/C=C/C(=O)/C=C/c2ccc(-n3ccnc3C)cc2)ccc1O | SNB-75 CNS | > 100 µM
C=C1C(O)C[C@H](OC(C)=O)[C@]2(C)C1C(OC(C)=O)[C@]1(C(C)(C)O)CC(O)C(C)=C1[C@@H](OC(=O)c1ccccc1)C2OC(C)=O (stereo partly drawn) | SNB-75 CNS | > 10 µM
Cn1ncc2c(Cl)ncnc21 | SNB-75 CNS | > 100 µM
C=C/C=C/[C@@H](O)CC(=C)C[C@H]1OC2[C@H](C)[C@@H](OC(=O)C[C@H]3C[C@H](OC(C)=O)C[C@@]4(C[C@@](C)(O)C[C@H](CC(=C)[C@@H](C)[C@H](OC(C)=O)[C@H](C)C(=O)C[C@@H]5C[C@H](OC)CC6(C[C@@H](O)C[C@H](/C=C\CCC[C@H]7O[C@](O)(C=C[C@H]7C)[C@H]2O)O6)O5)O4)O3)[C@@H]1O | SNB-75 CNS | > 25 µM
CC(=O)[O-].Cn1ccnc1CNCc1nccn1C.[Cu+2].[O-][Cl+3]([O-])([O-])[O-] | SNB-75 CNS | > 100 µM

In: Please give measured TGI of the following entry: COc1ccc2c(c1OC)CO[C@@H]2[C@H]1c2c(cc3c(c2OC)OCO3)CCN1S(=O)(=O)c1cn(C)cn1
Out: > 100 µM

In: Quick one: give measured TGI for CCOC(=O)c1nc2ccc(C(F)(F)F)cc2nc1Nc1ccc(Cl)c(Cl)c1
Out: > 100 µM

In: # return recorded TGI for input O=C(/C=C(\S/C=C(/c1ccccc1)N1CCn2c(C(=O)c3ccccc3)c(C(=O)c3ccccc3)c(C(=O)c3ccccc3)c21)C(=O)c1ccccc1)c1ccccc1
Out: > 10 µM

###

Here, each record is paired with measured TGI data.
Tested on: HOP-62 NSCLC
Test: NCI tumour cell line growth inhibition, 48 h

Some compounds with known TGI results, for comparison:
Compound | Assayed target | Value
COc1ccc2c(c1)[nH]c(=O)c1c3cccc(F)c3cn21 | HOP-62 NSCLC | 51.3 µM
C=CCN(CCNS(=O)(=O)c1ccc(C)cc1)S(=O)(=O)c1ccc(C)cc1 | HOP-62 NSCLC | > 100 µM
O=c1oc2ccccc2cc1-c1cn2c(n1)sc1ccccc12 | HOP-62 NSCLC | > 100 µM
NNC(=S)NCCNC(=S)NN | HOP-62 NSCLC | > 100 µM

In: Please list TGI recorded for the compound COc1cc(/C=N/Nc2ncnc3c2cnn3-c2ccccc2)ccc1O
Out: > 25 µM

In: Specify TGI for O=C1N2Cc3c4ccc5c3CN3C(=O)N6Cc7c(ccc(c7CN1C6(c1ccccc1)C23c1ccccc1)OCCOCCNCCOCCO4)OCCOCCNCCOCCO5 (configuration not stated) and stop.
Out: > 100 µM

In: Return TGI (reported value) for this compound: Cc1oc2c(c1C)S(=O)(=O)C(C#N)=C(N(C)C)N2
Out: > 100 µM

In: Read the entry O=C(O)c1ccc(C2=Cc3cc(Cl)ccc3OC2)cc1 and write its reported TGI.
Out: > 100 µM

In: Please indicate TGI recorded for COC(=O)N[C@H](C(=O)O)C(C)O[Si](C)(C)C(C)(C)C (some centres not stated)
Out: > 100 µM

In: In one line, give reported TGI of the entry CC(=O)Oc1c2c(c3n(c1=O)CCCC3)C(=O)N(c1ccccc1)C2=O .
Out: > 100 µM

In: Return TGI for the following compound: COCN1COCN=C1NC#N
Out: > 100 µM

In: Determine its reported TGI: COc1ccc2c(c1)c(-c1nc(-c3c[nH]c4ccncc34)cs1)cn2C
Out: 3.45 µM

Data origin: PubChem BioAssay (NCI)
